Test system: M14 melanoma
Test: NCI-60 one-dose screen, 48 h (100 = growth as untreated, 0 = no growth, -100 = all killed)
Settings: 10 µM unless noted
The panel holds about 83,000 compounds, 20% with a hit somewhere; the sample as a whole holds those more often.
Kindly apply the following: criterion met if growth is less than 30%, criterion not met in every other case.

# example entries with known answers
| compound | tested_on | group_label |
| --- | --- | --- |
| O=S(=O)(NCCCNc1cc(-c2cn(-c3ccccc3)nc2-c2cccc(O)c2)ccn1)c1cccc(F)c1 | M14 melanoma | criterion not met |
| Clc1ccc([I+]c2ccc(Cl)cc2Cl)c(Cl)c1 | M14 melanoma | criterion not met |
| CC(=O)C1CCC(C)=CC1=O (stereo not drawn) | M14 melanoma | criterion not met |
| CC(=O)c1cc(C(=O)c2ccc3c(c2)Sc2ccccc2N3)c2cc(C)ccn12 | M14 melanoma | criterion met |
| CCN(CC)S(=O)(=O)c1ccc2[nH]c(=O)cc(C(=O)Nc3ccc(OC)cc3OC)c2c1 | M14 melanoma | criterion not met |

Does O=S(=O)(NCCCNc1nccc(-c2c(-c3ccc(F)c(O)c3)nc3sccn23)n1)c1ccc(Cl)cc1 have growth strictly under 30%?
criterion met

Does COc1ccc(/C=C/c2cc(N3CCOCC3)c3cc(F)c(F)cc3n2)cc1OC have growth strictly under 30%?
criterion not met

Does CC/C(=C(\c1ccc(O)cc1)c1ccc(OCCN(C)CCN(C)C(=O)CCC(=O)c2c(C)[nH]c(/C=C3\N=C(c4ccc[nH]4)C=C3OC)c2C)cc1)c1ccccc1 have growth strictly under 30%?
criterion met
